Tested on: biotinyl-Phe-oxazolone
Experiment: self-aminoacylation, catalytic enhancement (BFO) (fold over background); higher = more active; k-Seq, kA / k0A0; sequences stand for … in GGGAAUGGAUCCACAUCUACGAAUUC…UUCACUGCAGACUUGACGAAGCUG
Fewer inactive variants are shown than the library holds.
In this section we review reported self-aminoacylation values for a set of sequences.
value.type: self-aminoacylation

INSERT INTO results (sequence_entry, value_type, measured) VALUES
  ('AAGUUCGCUAAUAGUCACAAG [Fam3.1 aminoacylation ribozyme variant]', 'self-aminoacylation', 3.01),
  ('CUACUUCAAACAUUCGGUAUG [Fam1A.1 aminoacylation ribozyme variant]', 'self-aminoacylation', 0.64),
  ('AUUCAGCUAGGUCACCGGGUG [Fam2.2 aminoacylation ribozyme variant]', 'self-aminoacylation', 51.6),
  ('AGGUUUGCUGAUAGUCGCAAG [Fam3.1 aminoacylation ribozyme variant]', 'self-aminoacylation', 2.52),
  ('AAGUGUGCUAUUAGUCGCAAG [Fam3.1 aminoacylation ribozyme variant]', 'self-aminoacylation', 2.19);

====

Tested on: biotinyl-Val-oxazolone
Test: self-aminoacylation, catalytic enhancement (BVO) (fold over background); higher = more active; k-Seq, kA / k0A0; sequences stand for … in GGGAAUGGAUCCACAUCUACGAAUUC…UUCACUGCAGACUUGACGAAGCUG
This sample holds only a part of the variants without activity.
value.type: self-aminoacylation

INSERT INTO measurements (sequence_entry, test_system, measured) VALUES
  ('AAGUUUGCUAAUAAUCGCAAC [Fam3.1 aminoacylation ribozyme variant]', 'biotinyl-Val-oxazolone', 0.975),
  ('AAGUUUGGUAAUAGUCGUAAG [Fam3.1 aminoacylation ribozyme variant]', 'biotinyl-Val-oxazolone', 0.916),
  ('AAGUUUGAUAAUAGUCGGAAG [Fam3.1 aminoacylation ribozyme variant]', 'biotinyl-Val-oxazolone', 0.572),
  ('CUACACUUCAAGCAAUCGGUA [Fam1B.1 aminoacylation ribozyme variant]', 'biotinyl-Val-oxazolone', 0.65),
  ('ACUCACCCAGGUCAUCGGGUG [Fam2.2 aminoacylation ribozyme variant]', 'biotinyl-Val-oxazolone', 4.51),
  ('AAGUUUGCUAAGUGUCGCAAG [Fam3.1 aminoacylation ribozyme variant]', 'biotinyl-Val-oxazolone', 0.897),
  ('AUUACCCUGGUCCUCGAGUGA [Fam2.1 aminoacylation ribozyme variant]', 'biotinyl-Val-oxazolone', 2.24),
  ('AUUACCCUAGUCCUCGAGUGA [Fam2.1 aminoacylation ribozyme variant]', 'biotinyl-Val-oxazolone', 2.34),
  ('CUACUUUUAACAAUCGGUCUG [Fam1A.1 aminoacylation ribozyme variant]', 'biotinyl-Val-oxazolone', 0.802),
  ('AUUCACCUAGGUCCUCGGAUG [Fam2.2 aminoacylation ribozyme variant]', 'biotinyl-Val-oxazolone', 0.89),
  ('ACACACUUCAAGCAAUCGGUG [Fam1B.1 aminoacylation ribozyme variant]', 'biotinyl-Val-oxazolone', 5.84),
  ('AGGUUUGCUAAUAGCCGCAAG [Fam3.1 aminoacylation ribozyme variant]', 'biotinyl-Val-oxazolone', 0.935),
  ('ACGAUUGCUAAUAGUCGCAAG [Fam3.1 aminoacylation ribozyme variant]', 'biotinyl-Val-oxazolone', 1.43),
  ('CCACAAUUCAAGCAAUCGGAC [Fam1B.1 aminoacylation ribozyme variant]', 'biotinyl-Val-oxazolone', 0.798),
  ('CUACUUCAAACAAUUGGUGUG [Fam1A.1 aminoacylation ribozyme variant]', 'biotinyl-Val-oxazolone', 1.12),
  ('CCACACUUCAAGCCAUCUGUC [Fam1B.1 aminoacylation ribozyme variant]', 'biotinyl-Val-oxazolone', 0.72),
  ('CCACAUUUCAAGCAAUCAGUC [Fam1B.1 aminoacylation ribozyme variant]', 'biotinyl-Val-oxazolone', 1.1),
  ('AUAACCUUGGUCAUCGAGUGA [Fam2.1 aminoacylation ribozyme variant]', 'biotinyl-Val-oxazolone', 3.3);

====

Test system: biotinyl-Ile-oxazolone
Experiment: self-aminoacylation, catalytic enhancement (BIO) (fold over background); higher = more active; k-Seq, kA / k0A0; sequences stand for … in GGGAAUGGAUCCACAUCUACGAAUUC…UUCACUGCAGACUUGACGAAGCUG
Fewer inactive variants are shown than the library holds.
value.type: self-aminoacylation

INSERT INTO assay_data (sequence_entry, value_type, measured) VALUES
  ('AUUCACCUCGGUCAUCGGGCG [Fam2.2 aminoacylation ribozyme variant]', 'self-aminoacylation', 2.49),
  ('AGUACCCUGGGCAUCGAGUGA [Fam2.1 aminoacylation ribozyme variant]', 'self-aminoacylation', 2.96),
  ('UUGCACCUAGGUCAUCGGGUG [Fam2.2 aminoacylation ribozyme variant]', 'self-aminoacylation', 3.11),
  ('CCACACUUCCCGCAAUCGGUC [Fam1B.1 aminoacylation ribozyme variant]', 'self-aminoacylation', 1.42),
  ('CUACUUCAAAAAAUCGGUCUG [Fam1A.1 aminoacylation ribozyme variant]', 'self-aminoacylation', 1),
  ('AUUACCCUGCUCAUCGACUGA [Fam2.1 aminoacylation ribozyme variant]', 'self-aminoacylation', 0.856),
  ('AAAUUUGCUAAUAGUCGCAUG [Fam3.1 aminoacylation ribozyme variant]', 'self-aminoacylation', 2.28),
  ('CUACUUCAUACAAUCGGUCAG [Fam1A.1 aminoacylation ribozyme variant]', 'self-aminoacylation', 0.738);

====

Tested on: biotinyl-Ile-oxazolone
Assay: self-aminoacylation, catalytic enhancement (BIO) (fold over background); higher = more active; k-Seq, kA / k0A0; sequences stand for … in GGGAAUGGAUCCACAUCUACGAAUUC…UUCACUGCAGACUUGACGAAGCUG
Fewer inactive variants are shown than the library holds.
self-aminoacylation reference
value.type: self-aminoacylation

INSERT INTO assay_data (sequence_entry, value_type, measured) VALUES
  ('CGACACUUCAAGCAAUCGGUG [Fam1B.1 aminoacylation ribozyme variant]', 'self-aminoacylation', 2.4),
  ('AUGCACCUAGGUUAUCGGGUG [Fam2.2 aminoacylation ribozyme variant]', 'self-aminoacylation', 3.4),
  ('AUUACCAUAGUCAUCGAGUGA [Fam2.1 aminoacylation ribozyme variant]', 'self-aminoacylation', 4.32),
  ('AAUCACCUAGGUCAUCGGGGG [Fam2.2 aminoacylation ribozyme variant]', 'self-aminoacylation', 2.91),
  ('CUACUUCAAACAUUCGGGCUG [Fam1A.1 aminoacylation ribozyme variant]', 'self-aminoacylation', 2.24),
  ('CUACUUCAAACAAUCGCUCGG [Fam1A.1 aminoacylation ribozyme variant]', 'self-aminoacylation', 1.02),
  ('AGUACCCUGCUCAUCGAGUGA [Fam2.1 aminoacylation ribozyme variant]', 'self-aminoacylation', 1.2),
  ('CCACACUUCAAUCAAACGGUC [Fam1B.1 aminoacylation ribozyme variant]', 'self-aminoacylation', 0.618),
  ('CUACUUCAAACAAUCGCGCUG [Fam1A.1 aminoacylation ribozyme variant]', 'self-aminoacylation', 1.47),
  ('AUUCACCUAGGUCGUCGGCUG [Fam2.2 aminoacylation ribozyme variant]', 'self-aminoacylation', 1.62),
  ('AUUCACCUAGGGCAACGGGUG [Fam2.2 aminoacylation ribozyme variant]', 'self-aminoacylation', 2.59),
  ('AUUUCCCUGGUCAUCGAGUGU [Fam2.1 aminoacylation ribozyme variant]', 'self-aminoacylation', 6.35),
  ('AUUCACCUAAGUCGUCGGGUG [Fam2.2 aminoacylation ribozyme variant]', 'self-aminoacylation', 1.88),
  ('AUUCAUCUAGGGCAUCGGGUG [Fam2.2 aminoacylation ribozyme variant]', 'self-aminoacylation', 2.81),
  ('CUAGUUCAAACAGUCGGUCUG [Fam1A.1 aminoacylation ribozyme variant]', 'self-aminoacylation', 1.04),
  ('CCACACCUGAAGCAAUCGGUC [Fam1B.1 aminoacylation ribozyme variant]', 'self-aminoacylation', 1.01),
  ('GCACACUUCAAGCAAUCGGUU [Fam1B.1 aminoacylation ribozyme variant]', 'self-aminoacylation', 3.38),
  ('AUUCACCUAUGUCAUCGGGUA [Fam2.2 aminoacylation ribozyme variant]', 'self-aminoacylation', 1.55),
  ('AUUACCCUGGUCAUUGGGUGA [Fam2.1 aminoacylation ribozyme variant]', 'self-aminoacylation', 5.58),
  ('CCACGCUACAAGCAAUCGGUC [Fam1B.1 aminoacylation ribozyme variant]', 'self-aminoacylation', 0.937),
  ('AUUACCUUGGUAAUCGAGUGA [Fam2.1 aminoacylation ribozyme variant]', 'self-aminoacylation', 3.52),
  ('CCUCACUUCAAGCAAUCGGUA [Fam1B.1 aminoacylation ribozyme variant]', 'self-aminoacylation', 1.05),
  ('AUUCACGUAGGUCAGCGGGUG [Fam2.2 aminoacylation ribozyme variant]', 'self-aminoacylation', 2.48),
  ('AUUCACUUGGGUCAUCGGGUG [Fam2.2 aminoacylation ribozyme variant]', 'self-aminoacylation', 4.61),
  ('AUUACCCUGGUAUUCGAGUGA [Fam2.1 aminoacylation ribozyme variant]', 'self-aminoacylation', 3.56),
  ('AUUACCCUAUUCAUCGAGUGA [Fam2.1 aminoacylation ribozyme variant]', 'self-aminoacylation', 2.37),
  ('CCACUCGUCAAGCAAUCGGUC [Fam1B.1 aminoacylation ribozyme variant]', 'self-aminoacylation', 1.15),
  ('ACACACUUCAAGCAAACGGUC [Fam1B.1 aminoacylation ribozyme variant]', 'self-aminoacylation', 1.02),
  ('AUUCCCCUAGGUCAUCGCGUG [Fam2.2 aminoacylation ribozyme variant]', 'self-aminoacylation', 64.1),
  ('AUUACCCUGGUCAUCAAGUGC [Fam2.1 aminoacylation ribozyme variant]', 'self-aminoacylation', 0.689),
  ('AUUUAUCUAGGUCAUCGGGUG [Fam2.2 aminoacylation ribozyme variant]', 'self-aminoacylation', 3.08),
  ('AAGUAUGCUAAUAGCCGCAAG [Fam3.1 aminoacylation ribozyme variant]', 'self-aminoacylation', 1.49),
  ('AUUACCCUGCUCAUCGAGAGA [Fam2.1 aminoacylation ribozyme variant]', 'self-aminoacylation', 0.834),
  ('CCAUACUUCAAGCAAUAGGUC [Fam1B.1 aminoacylation ribozyme variant]', 'self-aminoacylation', 0.72);
